Recorded IC50 values for a group of compounds are listed next.
- Tested on: platelet aggregation induced by PAF
- Test details: Inhibition of Platelet Aggregation Induced by PAF (Born nephelometric technique, rabbit platelet rich plasma)
- Assay type: cell-based, male New Zealand albino rabbits
- Conditions used: PAF (C18) 16 nM final

Compound	Display unit	IC50
CCCCCCCCCCCCCCCCCNC(=O)OCCSCCOC(=O)N(Cc1cccc[n+]1CC)C(C)=O.[I-] [Compound 62]	nM	4.4
CCCCCCCCCCCCCCCCCNC(=O)OCCSCCOC(=O)N(Cc1cccc[n+]1CC)C(C)=O.[Cl-] [Compound 63]	nM	12

----------
- Test system: platelet aggregation induced by PAF
- Test details: Inhibition of Platelet Aggregation Induced by PAF (Born nephelometric technique, rabbit platelet rich plasma)
- Type: cell-based, male New Zealand albino rabbits
- Conditions used: Oryctolagus cuniculus, Platelet, PAF (C18) 16 nM final
Recorded IC50 values for a group of compounds are listed next.

Structure notation	IC50, nM
CCCCCCCCCCCCCCCCCNC(=O)OCCOCCOC(=O)N(Cc1cccc[n+]1CC)C(C)=O	27
CCCCCCCCCCCCCCCCOCCSCCOC(=O)N(Cc1cccc[n+]1CC)C(C)=O.[I-]	4.4
CC[n+]1ccccc1CN(C(C)=O)C(=O)OCCOCCOC(=O)C(C)(C)C.[I-]	1500
CCCCCCCCCCCCCCCNC(=O)OCCOCCOCCOC(=O)N(Cc1cccc[n+]1CC)C(C)=O.[I-]	12
CCCCCCCCCCCCCCCNC(=O)OCCOCCOC(=O)N(Cc1cccc[n+]1CC)C(=O)OCC(C)C.[Cl-]	51
CCCCCCCCCCCCCCCCCNC(=O)OCCOCCOC(=O)N(Cc1cccc[n+]1C)C(C)=O.[I-]	54
CC[n+]1ccccc1CN(C(C)=O)C(=O)OCCOCCOC(=O)NCC1CCCCC1.[I-]	2000
CCCCCCCCCCCCCCCNC(=O)OCCOCCOC(=O)N(Cc1cccc[n+]1CC)C(C)=O.[I-]	19
CCCCCCCCCCCCCCCNC(=O)OCCOCCOC(=O)N(Cc1cccc[n+]1CCC)C(C)=O.[I-]	220
CCCCCCCCCCCCCCCCCNC(=O)OCCOCCOC(=O)N(Cc1cccc[n+]1CC)C(=O)OCC.[I-]	12
CC[n+]1ccccc1CN(C(C)=O)C(=O)OCCOCCOC(=O)NCCCc1ccccc1.[I-]	1200
CCCCCCCCCCCCCCCNC(=O)OCCCCCOC(=O)N(Cc1cccc[n+]1CC)C(C)=O.[I-]	32
CCCCCCCCCCCCCCCNC(=O)OCCSCCOC(=O)N(Cc1cccc[n+]1CC)C(C)=O.[I-]	6.8
CCCCCCCCCCCCCCCCCNC(=O)OCCOCCOC(=O)NCc1cccc[n+]1CC.[I-]	1600
CCCCCCCCCCCCCCCNC(=O)OCCOCCOC(=O)N(Cc1cccc[n+]1CC)C(=O)OCC.[I-]	27
CCCCCCCCCCCCCCCCCCOCCSCCOC(=O)N(Cc1cccc[n+]1CC)C(C)=O	15
CCCCCCCCCCCCCCCCCCOCCOCCOC(=O)N(Cc1cccc[n+]1CC)C(C)=O.[I-]	19
